# experimental system: T1, human Complement Factor D (CFD), purified from human serum (human, UniProt P00746 26-253)
# T1 construct: serum purified (CompTech A136); also called serum purified CFD; hCFD-Comptech
# T1 sequence (P00746 26-253): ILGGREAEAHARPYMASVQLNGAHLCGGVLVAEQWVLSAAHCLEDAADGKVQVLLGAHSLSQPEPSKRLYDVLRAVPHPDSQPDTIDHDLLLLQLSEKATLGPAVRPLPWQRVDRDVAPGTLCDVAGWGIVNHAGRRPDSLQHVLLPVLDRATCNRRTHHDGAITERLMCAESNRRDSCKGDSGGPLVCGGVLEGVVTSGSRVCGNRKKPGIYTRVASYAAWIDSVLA
# assay explanation: SPR MX96, mAbs amine-coupled, CFD injected
endpoint: Kd (nM)
Number in nM, nothing else.

Ask | // returns reported Kd for input KCD022 (antibody, V domains shown) VH: DVQLQESGPDLVKPSQSLSLTCTVTGYSITSGYSWHWIRQFPGNTLEWMGYIHYSGSTNYNPSLESRISFTRDTSKNQFFLQLNSVTTEDTATYYCALHFYGYNLGWYFDVWGAGTTVTVSS VL: DIVMTQSHKFMSTSIGDRVIITCKASQDVGTTVAWYQQRPGQSPKLLIYWASTRHTAVPDRFTGSGSGTDFTLTISNVQSEDLADYFCQQYTSYPLTFGAGTQLELK
Reply | 56.8

Now turn to the next binder.
Ask | // returns reported Kd for input KCD048 (antibody, V domains shown) VH: EVQLQQSGADLVKPGASVKLSCTASGFNIKATYMHWVRQRPEKGLEWIGRIDPANGHTIYDPQFQGKATITSDTSSNTAYLQLNSLTSEDTAVYYCAEAMDYWGQGTSVTVSS VL: QIVLTQSPAIMSASPGEKVTLTCSATSSVSYMYWYQQKPGSSPRLLIYDTSNLASGVPVRFSGSGSGTSYSLTISRMEAEDDATYYCQQWSNYPFTFGGGTKLEIK
Reply | 1.87
